- experiment: in vitro
- details: dog
reported metric: log10 of CC50 at 72 h (log10 of the value in µM)
Note the log scale: values are log10 of CC50 at 72 h expressed in µM.

C[C@H]1O[C@H](O[C@H]2[C@H](O[C@H]3[C@H](O[C@H]4CC[C@]5(C)[C@H]6CC=C7[C@@H]8CC(C)(C)[C@H](OC(=O)/C=C/c9ccccc9)C[C@]8(C(=O)O)CC[C@@]7(C)[C@]6(C)CC[C@H]5C4(C)C)OC[C@@H](O)[C@@H]3O)OC[C@@H](O)[C@@H]2O)[C@@H](O)[C@@H](O)[C@@H]1O	0.18
C=C(C)[C@@H]1CC[C@]2(C(=O)O)CC[C@]3(C)[C@H](CC[C@@H]4[C@@]5(C)C[C@@H](O)[C@H](O)C(C)(C)[C@@H]5CC[C@]43C)[C@@H]12	1.70
C=C(C)[C@@H]1CC[C@]2(C(=O)O)CC[C@]3(C)[C@H](CC[C@@H]4[C@@]5(C)C[C@@H](O)[C@H](O[C@@H]6O[C@H](CO)[C@@H](O[C@@H]7O[C@H](C)[C@@H](O)[C@H](O)[C@@H]7O)[C@H](O)[C@H]6O[C@@H]6OC[C@@H](O)[C@H](O)[C@H]6O)C(C)(C)[C@@H]5CC[C@]43C)[C@@H]12	1.02

For record `C[C@H]1O[C@@H](O[C@H]2[C@H](O)[C@@H](O[C@@H]3OC[C@@H](O)[C@H](O)[C@H]3O)[C@H](O[C@H]3[C@H](O)C[C@]4(C)[C@H]5CC=C6[C@@H]7CC(C)(C)CC[C@]7(C(=O)O)CC[C@@]6(C)[C@]5(C)CC[C@H]4C3(C)C)O[C@@H]2CO)[C@@H](O)[C@@H](O)[C@@H]1O` the listed log10 of CC50 at 72 h is 1.19

For record `C[C@H]1O[C@H](O[C@@H]2CO[C@@H](O[C@H]3CC[C@]4(C)[C@H]5CC=C6[C@@H]7CC(C)(C)[C@H](OC(=O)/C=C/c8ccccc8)C[C@]7(C(=O)O)CC[C@@]6(C)[C@]5(C)CC[C@H]4C3(C)C)[C@H](O[C@@H]3OC[C@@H](O)[C@H](O)[C@H]3O[C@H]3O[C@H](C)[C@@H](O)[C@H](O)[C@@H]3O)[C@H]2O)[C@@H](O)[C@@H](O)[C@@H]1O` the listed log10 of CC50 at 72 h is 0.08

For record `C[C@H]1O[C@@H](O[C@H]2[C@H](O)[C@@H](O[C@@H]3OC[C@@H](O)[C@H](O)[C@H]3O)[C@H](O[C@H]3[C@H](O)C[C@]4(C)[C@H]5CC=C6[C@@H]7CC(C)(C)[C@H](OC(=O)/C=C/c8ccccc8)C[C@]7(C(=O)O)CC[C@@]6(C)[C@]5(C)CC[C@H]4C3(C)C)O[C@@H]2CO)[C@@H](O)[C@@H](O)[C@@H]1O` the listed log10 of CC50 at 72 h is 0.76

For record `CC1(C)CC[C@]2(C(=O)O)CC[C@]3(C)C(=CC[C@@H]4[C@@]5(C)C[C@@H](O)[C@H](O)C(C)(C)[C@@H]5CC[C@]43C)[C@@H]2C1` the listed log10 of CC50 at 72 h is 1.37
